Hey, just so you know, these numbers are from PubChem BioAssay AID2060325.

Tested on: SK-OV-3 multi-cell spheroids, viability
Assay: Anticancer human tumor SK-OV-3 cell line growth inhibition [IpAb];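 as to viability, T/C: viability read after seven days of drug exposure; percent of DMSO vehicle control luminescence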
Condition: second compound 1 µM; first compound 3 µM; stronger effect = lower value
Value type: viability, T/C (%)
Response body: numeric value in %, unit text excluded.

Observe how each entry below is paired with its result.
Compound	viability, T/C, %
Cn1cnc2c(F)c(Nc3ccc(Br)cc3Cl)c(C(=O)NOCCO)cc21 + CCN1CCN(Cc2ccc(Nc3ncc(F)c(-c4cc(F)c5nc(C)n(C(C)C)c5c4)n3)nc2)CC1	24.2
CC(C)(C)c1cnc(CSc2cnc(NC(=O)C3CCNCC3)s2)o1 + CCN1CCN(Cc2ccc(Nc3ncc(F)c(-c4cc(F)c5nc(C)n(C(C)C)c5c4)n3)nc2)CC1	1.15

What value of measured viability, T/C is listed for Cn1cnc2c(F)c(Nc3ccc(Br)cc3Cl)c(C(=O)NOCCO)cc21 + CC(C)NCC(C(=O)N1CCN(c2ncnc3c2C(C)CC3O)CC1)c1ccc(Cl)cc1 ? 4.86

What does the record list as viability, T/C for CC(C)(C)c1cnc(CSc2cnc(NC(=O)C3CCNCC3)s2)o1 + CC(C)NCC(C(=O)N1CCN(c2ncnc3c2C(C)CC3O)CC1)c1ccc(Cl)cc1 ? 0.62

---

Test system: SK-OV-3 multi-cell spheroids, viability
Assay: Anticancer human tumor SK-OV-3 cell line growth inhibition [IpAb]
Condition: curve of first compound; second compound 0.316 µM
Description: Combinatorial screen of targeted agents with ipatasertib and abemaciclib in multi-cell type tumor spheroids […] Compounds. […] If the clinical Cmax for an agent had not been determined, the highest concentration tested was 10 microM. NCI60 Cell Culture. […] The optimal seeding densities for each of the cell lines at each time point assessed were determined prior to performing the concentration response studies. […]
This section presents molecules with their documented pIC50 values.
// pIC50 here means minus log10 of the molar concentration (mol/L)

Take a look at these entries with their results.
Molecule	pIC50
CC1(C)CCC(CN2CCN(c3ccc(C(=O)NS(=O)(=O)c4ccc(NCC5CCOCC5)c([N+](=O)[O-])c4)c(Oc4cnc5[nH]ccc5c4)c3)CC2)=C(c2ccc(Cl)cc2)C1 + CCN1CCN(Cc2ccc(Nc3ncc(F)c(-c4cc(F)c5nc(C)n(C(C)C)c5c4)n3)nc2)CC1	6.50
C=CCn1c(=O)c2cnc(Nc3ccc(N4CCN(C)CC4)cc3)nc2n1-c1cccc(C(C)(C)O)n1 + CCN1CCN(Cc2ccc(Nc3ncc(F)c(-c4cc(F)c5nc(C)n(C(C)C)c5c4)n3)nc2)CC1	7.41

Fill blank: measured pIC50 of the molecule Cn1nccc1Nc1nccc(-c2ccn(C(CO)c3ccc(Cl)c(F)c3)c(=O)c2)n1 (stereo not given) + CCN1CCN(Cc2ccc(Nc3ncc(F)c(-c4cc(F)c5nc(C)n(C(C)C)c5c4)n3)nc2)CC1 is ____. 5.37

Which value of pIC50 has been reported for CC(=O)c1c(C)c2cnc(Nc3ccc(N4CCNCC4)cn3)nc2n(C2CCCC2)c1=O + CCN1CCN(Cc2ccc(Nc3ncc(F)c(-c4cc(F)c5nc(C)n(C(C)C)c5c4)n3)nc2)CC1 in the records? 8.58

---

Overview of reported viability, T/C across a group of molecules:
Tested on: SK-OV-3 multi-cell spheroids, viability
Assay: Anticancer human tumor SK-OV-3 cell line growth inhibition [IpAb];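 as to viability, T/C: viability read after seven days of drug exposure; percent of DMSO vehicle control luminescence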
Condition: second compound 0.01 µM; first compound 0.1 µM; stronger effect = lower value

Molecule	viability, T/C
CCCS(=O)(=O)Nc1ccc(F)c(C(=O)c2c[nH]c3ncc(-c4ccc(Cl)cc4)cc23)c1F + CCN1CCN(Cc2ccc(Nc3ncc(F)c(-c4cc(F)c5nc(C)n(C(C)C)c5c4)n3)nc2)CC1	93.5%

State the recorded viability, T/C for this entry: Cn1nccc1Nc1nccc(-c2ccn(C(CO)c3ccc(Cl)c(F)c3)c(=O)c2)n1 (stereo not given) + CCN1CCN(Cc2ccc(Nc3ncc(F)c(-c4cc(F)c5nc(C)n(C(C)C)c5c4)n3)nc2)CC1 98.2%

// returns reported viability, T/C for input CC(C)n1nc(-c2ccc3oc(N)nc3c2)c2c(N)ncnc21 + CCN1CCN(Cc2ccc(Nc3ncc(F)c(-c4cc(F)c5nc(C)n(C(C)C)c5c4)n3)nc2)CC1 7.65%

Need viability, T/C of Cc1nc(NC(=O)N2CCCC2C(N)=O)sc1-c1ccnc(C(C)(C)C(F)(F)F)c1 (stereo not given) + CCN1CCN(Cc2ccc(Nc3ncc(F)c(-c4cc(F)c5nc(C)n(C(C)C)c5c4)n3)nc2)CC1 , thanks. 70%

Consider the molecule Cn1ncnc1[C@H]1c2n[nH]c(=O)c3cc(F)cc(c23)N[C@@H]1c1ccc(F)cc1 + CCN1CCN(Cc2ccc(Nc3ncc(F)c(-c4cc(F)c5nc(C)n(C(C)C)c5c4)n3)nc2)CC1 and give its measured viability, T/C. 60.2%
